Target: Sigma non-opioid intracellular receptor 1 (Cavia porcellus)
Assay procedure: Displacement of [3H]-(+) -3PPP from sigma receptor in guinea pig brain membranes
Please assign a class to every record based on measured Ki, with ranges low: < 1 nM; medium: ≥ 1 nM and < 2 nM; high: ≥ 2 nM

Req: Please let me know in which category the item CNCCN(C)CCc1ccc(Cl)c(Cl)c1 belongs.
Resp: high

Req: Please let me know in which category the item CN(CCCN1CCCC1)CCc1ccc(Cl)c(Cl)c1 belongs.
Resp: medium

Req: Please let me know in which category the item C=CCN(CCc1ccc(Cl)c(Cl)c1)CCN1CCCC1 belongs.
Resp: medium

Req: Please let me know in which category the item CC(CN(C)CCc1ccc(Cl)c(Cl)c1)N(C)C (stereo unspecified) belongs.
Resp: medium

Req: Please let me know in which category the item CCN(CC)CCN(C)CCc1ccc(Cl)c(Cl)c1 belongs.
Resp: low
